# pIC50 per record follows
target: aggrecanase-1 (Homo sapiens, UniProt O75173); experiment: Aggrecanase-1 inhibitory action (Particle Assay, GAG release from aggrecan-containing polyacrylamide particles); assay type: biochemical; settings: Experimental Example 1; read-out: IC50 AG1
Sequence (O75173 213-837, species assumed): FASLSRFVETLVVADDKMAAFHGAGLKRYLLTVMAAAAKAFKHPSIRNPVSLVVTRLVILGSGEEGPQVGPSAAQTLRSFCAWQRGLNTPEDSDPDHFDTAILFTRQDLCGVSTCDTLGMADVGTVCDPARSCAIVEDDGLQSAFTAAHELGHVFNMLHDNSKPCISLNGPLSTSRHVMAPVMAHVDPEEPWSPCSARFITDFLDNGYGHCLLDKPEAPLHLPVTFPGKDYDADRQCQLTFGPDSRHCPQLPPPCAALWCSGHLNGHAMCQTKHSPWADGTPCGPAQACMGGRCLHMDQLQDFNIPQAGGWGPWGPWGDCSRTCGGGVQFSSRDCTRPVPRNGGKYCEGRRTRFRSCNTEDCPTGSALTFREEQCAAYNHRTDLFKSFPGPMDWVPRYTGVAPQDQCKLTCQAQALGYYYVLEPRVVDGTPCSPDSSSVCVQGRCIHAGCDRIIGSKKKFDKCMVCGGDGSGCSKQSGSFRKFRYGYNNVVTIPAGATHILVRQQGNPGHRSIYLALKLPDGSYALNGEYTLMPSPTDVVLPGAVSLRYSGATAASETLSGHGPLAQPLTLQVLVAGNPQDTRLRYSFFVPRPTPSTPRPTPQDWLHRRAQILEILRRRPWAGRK
pIC50: −log10 of the molar value.

C=C(Cl)c1cnn(-c2ccc(S(=O)(=O)N[C@@]3(C(=O)O)C(C)[C@@H]3c3ccccc3)s2)c1 (stereo partly shown) | > 7.00
CC(C)C(=O)NCC1(c2ccccc2)CC1(NS(=O)(=O)c1ccc(-c2ccc(Cl)cc2)s1)C(=O)O (stereo not shown) | > 6.00

Prompt: Requested field: pIC50. Item: COCCN(C)CC1(c2ccccc2)CC1(NS(=O)(=O)c1ccc(-c2cc(C(F)(F)F)on2)s1)C(=O)O (stereo not shown)
Response: ≤ 6.00

Prompt: Which pIC50 value belongs to O=C(O)C1(NS(=O)(=O)c2ccc(-c3ccc(Cl)cc3)s2)C2CCNc3ccccc3C21 (stereo not shown) ?
Response: > 7.00

----------
molecular target: aggrecanase-1 (Homo sapiens, UniProt O75173); assay: Aggrecanase-1 inhibitory action (Particle Assay, GAG release from aggrecan-containing polyacrylamide particles); assay type: biochemical; conditions: aggrecanase-1 inhibitory action; read-out: IC50 AG1 (Experimental Example 1)
Readout kind: IC50

Would you please look over these solved cases?
COCc1cccc(C2CC2(NS(=O)(=O)c2ccc(-c3ccc(Cl)cn3)s2)C(=O)O)c1 (stereo not drawn) | < 1 µM
CN(C)C(=O)COc1cccc(C2CC2(NS(=O)(=O)c2ccc(-c3ccc(Cl)cc3)cc2)C(=O)O)c1 (stereo not drawn) | < 1 µM
O=C(Cc1cccc(C2CC2(NS(=O)(=O)c2ccc(-c3cc(C(F)(F)F)on3)s2)C(=O)O)c1)N1CCC(O)CC1 (stereo not drawn) | < 0.1 µM
CC(=O)Nc1cccc(C2CC2(NS(=O)(=O)c2ccc(-c3ccc(Cl)cc3)cc2)C(=O)O)c1 (stereo not drawn) | < 1 µM

Prompt: Which measured IC50 value corresponds to O=C1O[C@@H]([C@H]2C[C@@]2(NS(=O)(=O)c2ccc(-c3ccc(Cl)cc3)s2)C(=O)O)CN1Cc1ccccc1 ?
Response: ≥ 1 µM

Prompt: Field request: IC50 | item: O=C(O)[C@@]1(NS(=O)(=O)c2ccc3c(c2)Cc2cc(F)ccc2-3)C[C@H]1c1ccccc1
Response: < 1 µM

----------
Entries annotated with measured IC50
Biological target: aggrecanase-1 (Homo sapiens)
Assay: Aggrecanase-1 inhibitory action (Particle Assay, GAG release from aggrecan-containing polyacrylamide particles)
Assay type: biochemical
Settings: Experimental Example 1; read-out: IC50 AG1
Procedure: Particle Assay was used for determination of aggrecanase activity. The enzyme and substrate were diluted with Tris-HCl buffer, and test compounds were diluted with dimethyl sulfoxide (DMSO). […] After incubation, the supernatant was transferred to another plate, and mixed with 1,9-dimethylmethylene blue. The absorbence at 595 nm was measured to quantify the amount of glycosaminoglycan (GAG) released in the reaction supernatant. […]

Guide cases for IC50, answers given:
CCN(CC)CC1(c2ccccc2)CC1(NS(=O)(=O)c1ccc(-c2cc(C(F)(F)F)on2)s1)C(=O)O (stereo not shown) | ≥ 1000 nM
CCOC(=O)CSCC1(c2ccccc2)CC1(NS(=O)(=O)c1ccc(-c2cc(C(F)(F)F)on2)s1)C(=O)O (stereo not shown) | < 1000 nM

Prompt: Please look up its IC50: CNC(=O)CCc1ccc([C@H]2C[C@@]2(NS(=O)(=O)c2ccc(-c3cc(C(F)(F)F)on3)s2)C(=O)O)cc1
Response: < 100 nM

Prompt: Need IC50 of Cc1nnc(N2CCN(S(=O)(=O)N[C@@]3(C(=O)O)C(C)[C@@H]3c3ccccc3)CC2)s1 (stereo partly shown) , thanks.
Response: ≥ 1000 nM

Prompt: Field request: IC50 | item: COc1ccccc1C1(C)CC1(NS(=O)(=O)c1ccc(-c2cc(C(F)(F)F)on2)s1)C(=O)O (stereo not shown)
Response: < 100 nM

Prompt: Need IC50, item CC1[C@H](c2ccccc2)[C@]1(NS(=O)(=O)N1CCn2c(nc3cc(Cl)ccc32)C1)C(=O)O (stereo partly shown)
Response: < 1000 nM

Prompt: Consider the molecule shown here: Cn1nncc1-c1ccc(S(=O)(=O)N[C@@]2(C(=O)O)C[C@]2(C)c2ccccc2)s1 What is its recorded IC50?
Response: ≥ 1000 nM

----------
Each entry below lists one item and its recorded pIC50 value.
target: UniProt O75173; experiment: Aggrecanase-1 inhibitory action (Particle Assay, GAG release from aggrecan-containing polyacrylamide particles); type: biochemical; details: aggrecanase-1 inhibitory action; read-out: IC50 AG1 (Experimental Example 1)
pIC50: −log10 of the molar value.

Example results:
COc1ccc(N2CCN(S(=O)(=O)NC3(C(=O)O)CC3c3ccccc3)CC2)cc1 (stereo not drawn) | ≤ 5.00
O=C(O)C1(NS(=O)(=O)c2ccc(-c3ccc(Cl)cc3)cc2)CC1c1cccc(Oc2ccc(Cl)cc2)c1 (stereo not drawn) | > 6.00
O=C(O)C1(NS(=O)(=O)c2ccc(-c3ccc(Cl)cc3)s2)CC1c1ccccc1OCc1ccccn1 (stereo not drawn) | > 6.00
O=C(O)C1(NS(=O)(=O)c2ccc(-c3ccc(Cl)cc3)s2)CC1c1cccc(CO)c1 (stereo not drawn) | > 7.00
O=C(NCCc1cccc(C2CC2(NS(=O)(=O)c2ccc(-c3cc(C(F)(F)F)on3)s2)C(=O)O)c1)N1CCOCC1 (stereo not drawn) | > 7.00

Proceed to the following item.
Prompt: Which pIC50 is reported with UniProt O75173 for this entry: O=C(O)C1(NS(=O)(=O)N2CCN(c3ccc(Cl)c(C(F)(F)F)c3)CC2)CC1c1ccccc1 (stereo not drawn) ?
Response: ≤ 6.00

----------
target: MMP-1 (Homo sapiens); assay: MMP-1 inhibitory action (Type I collagen Activity Measurement kit, FITC-labeled collagen type I); type: biochemical; conditions: Experimental Example 2; read-out: IC50 MMP1
Sequence (P03956 100-469, species assumed): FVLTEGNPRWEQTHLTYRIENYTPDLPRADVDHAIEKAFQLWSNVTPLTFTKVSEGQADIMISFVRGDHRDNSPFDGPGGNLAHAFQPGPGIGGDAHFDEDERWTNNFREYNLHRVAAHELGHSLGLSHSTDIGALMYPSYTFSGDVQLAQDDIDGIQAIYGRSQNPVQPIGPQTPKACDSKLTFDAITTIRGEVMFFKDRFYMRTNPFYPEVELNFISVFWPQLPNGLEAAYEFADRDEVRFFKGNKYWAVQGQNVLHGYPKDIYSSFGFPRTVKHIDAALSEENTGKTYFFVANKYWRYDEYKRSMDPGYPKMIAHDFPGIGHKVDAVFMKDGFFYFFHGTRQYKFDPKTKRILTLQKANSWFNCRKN
pIC50: −log10 of the molar value.
pIC50 values for the molecules below.

CC(=O)c1ccc(S(=O)(=O)N[C@@]2(C(=O)O)C(C)[C@@H]2c2ccccc2)s1 (stereo partly drawn) | ≤ 5.00
COc1ccc(-c2ccc(S(=O)(=O)N[C@@]3(C(=O)O)C[C@]3(C)c3ccccc3)s2)cc1Cl | ≤ 6.00
CC1[C@H](c2ccccc2)[C@]1(NS(=O)(=O)c1ccc(-c2cc(C(N)=O)on2)s1)C(=O)O (stereo partly drawn) | ≤ 6.00
O=C(O)C1(NS(=O)(=O)c2ccc(-c3cc(C(F)(F)F)on3)s2)C2CCC(O)c3ccccc3C21 (stereo not drawn) [Example 2-437] | > 6.00

Prompt: Query: pIC50; subject: CC1[C@H](c2ccccc2)[C@]1(NS(=O)(=O)c1ccc(-c2cc3ccccc3[nH]2)s1)C(=O)O (stereo partly drawn)
Response: > 6.00

Prompt: Sample CC1[C@H](c2ccccc2)[C@]1(NS(=O)(=O)c1ccc(-c2cc(C#N)on2)s1)C(=O)O (stereo partly drawn) — what was its pIC50?
Response: > 6.00

Prompt: Given the molecule O=C(NCCO)OCC1(c2ccccc2)CC1(NS(=O)(=O)c1ccc(-c2cc(C(F)(F)F)on2)s1)C(=O)O (stereo not drawn) , what is its reported pIC50?
Response: ≤ 6.00

Prompt: Which pIC50 value belongs to CC1(c2ccccc2F)CC1(NS(=O)(=O)c1ccc(-c2cc(C(F)(F)F)on2)s1)C(=O)O (stereo not drawn) ?
Response: > 7.00

Prompt: // pIC50 lookup, key: CCCC(=O)NCC1(c2ccccc2)CC1(NS(=O)(=O)c1ccc(-c2ccc(Cl)cc2)s1)C(=O)O (stereo not drawn)
Response: ≤ 6.00

Prompt: pIC50 for CC(C)c1cc(-c2ccc(S(=O)(=O)N[C@@]3(C(=O)O)C(C)[C@@H]3c3ccccc3)s2)no1 (stereo partly drawn) ?
Response: > 6.00

Prompt: Would you mind telling me what pIC50 value was observed for O=C(O)C1(NS(=O)(=O)c2ccc(-c3cc(C(F)(F)F)on3)s2)CC1c1cccc(CO)c1 (stereo not drawn) ?
Response: ≤ 6.00

Prompt: State the recorded pIC50 for this entry: CC1(c2ccc(F)cc2)CC1(NS(=O)(=O)c1ccc(-c2cc(C(F)(F)F)on2)s1)C(=O)O (stereo not drawn) [Example 2-339]
Response: ≤ 6.00

Prompt: Which pIC50 is reported for this molecule? C[C@]1(c2ccccc2)C[C@@]1(NS(=O)(=O)c1ccc(-c2cccc(C(=O)O)c2)s1)C(=O)O
Response: ≤ 5.00

Prompt: Any idea what its pIC50 is? The molecule is O=C(NO)C1(NS(=O)(=O)c2ccc(-c3cc(C(F)(F)F)on3)s2)C2Cc3ccccc3C21 (stereo not drawn)
Response: > 7.00

Prompt: Which pIC50 reading was recorded for the molecule CC1[C@H](c2ccccc2)[C@]1(NS(=O)(=O)N1CCN(C/C=C/c2ccccc2)CC1)C(=O)O (stereo partly drawn) ?
Response: ≤ 6.00

----------
molecular target: UniProt O75173; experiment: Aggrecanase-1 inhibitory action (Particle Assay, GAG release from aggrecan-containing polyacrylamide particles); format: biochemical; details: Experimental Example 1; read-out: IC50 AG1
Readout kind: IC50

Worked cases, IC50 given:
CC1[C@H](c2ccccc2)[C@]1(NS(=O)(=O)c1ccc2nc(-c3ccccc3)cn2c1)C(=O)O (stereo partly drawn) | ≥ 1000 nM
CCCC(=O)NCC1(c2ccccc2)CC1(NS(=O)(=O)c1ccc(-c2ccc(Cl)cc2)s1)C(=O)O (stereo not drawn) | < 1000 nM
CC1[C@H](c2ccccc2)[C@]1(NS(=O)(=O)c1ccc(-n2cc(C(=O)O)cn2)s1)C(=O)O (stereo partly drawn) | ≥ 1000 nM
O=C(NCC1(c2ccccc2)CC1(NS(=O)(=O)c1ccc(-c2ccc(Cl)cc2)s1)C(=O)O)c1cccnc1 (stereo not drawn) | < 1000 nM
CC1[C@H](c2ccccc2)[C@]1(NS(=O)(=O)c1ccc(-c2ccc(Cl)cn2)s1)C(=O)O (stereo partly drawn) | < 100 nM
O=C(O)C1(NS(=O)(=O)c2ccc(-c3cc(C(F)(F)F)on3)s2)C2CCOc3ccccc3C21 (stereo not drawn) | < 100 nM

Prompt: What value of IC50 has been recorded for this entry: C[C@]1(c2ccccc2)C[C@@]1(NS(=O)(=O)c1cn2cc(-c3ccccc3)nc2s1)C(=O)O
Response: < 1000 nM

Prompt: Report IC50 for Cn1cc(-c2ccc(S(=O)(=O)N[C@@]3(C(=O)O)C[C@]3(C)c3ccccc3)s2)nn1 please.
Response: ≥ 1000 nM

Prompt: Form field: reported IC50 of O=C(NCC1(c2ccccc2)CC1(NS(=O)(=O)c1ccc(-c2ccc(Cl)cc2)s1)C(=O)O)[C@@H]1CCCO1 (stereo partly drawn)
Response: < 1000 nM

Prompt: Which IC50 reading was recorded for the compound CN(C)CCSCC1(c2ccccc2)CC1(NS(=O)(=O)c1ccc(-c2ccc(Cl)cc2)s1)C(=O)O (stereo not drawn) ?
Response: < 1000 nM

Prompt: I'd like to know its IC50. The compound in question is CC1[C@H](c2ccccc2)[C@]1(NS(=O)(=O)N1CCN(c2ccncc2)CC1)C(=O)O (stereo partly drawn)
Response: ≥ 1000 nM

Prompt: Request the reported IC50 associated with CC1[C@H](c2ccccc2)[C@]1(NS(=O)(=O)c1ccc(Br)s1)C(=O)O (stereo partly drawn)
Response: ≥ 10000 nM

Prompt: Data request, read-out IC50, for CC(C)CCN1CCN(S(=O)(=O)N[C@@]2(C(=O)O)C(C)[C@@H]2c2ccccc2)CC1 (stereo partly drawn)
Response: ≥ 1000 nM

Prompt: Reported IC50 for C[C@]1(c2ccccc2)C[C@@]1(NS(=O)(=O)c1ccc(-c2ccc(C#N)cc2)s1)C(=O)O : what is it?
Response: < 100 nM

Prompt: For C[C@]1(c2ccccc2)C[C@@]1(NS(=O)(=O)c1ccc(-c2cccc(C(F)(F)CO)c2)s1)C(=O)O , what is its reported IC50?
Response: ≥ 1000 nM
